Just for reference, paper PMC8058764 is where these values come from.

experiment: Lopinavir intrinsic clearance by adult human liver microsomes; type: in vitro ADME; conditions: both, human, pooled adult human liver microsomes, pH 7.4
Measure name: half-life at 1 μM

Smiles notation | Assay result
Cc1cccc(C)c1OCC(=O)N[C@@H](Cc1ccccc1)[C@@H](O)C[C@H](Cc1ccccc1)NC(=O)[C@H](C(C)C)N1CCCNC1=O | 7.18 min

====

test: Lopinavir intrinsic clearance by adult human liver microsomes; type: in vitro ADME; details: both, human, pooled adult human liver microsomes, pH 7.4
Measure name: microsomal CLint at 1 μM

Smiles notation | Assay result
Cc1cccc(C)c1OCC(=O)N[C@@H](Cc1ccccc1)[C@@H](O)C[C@H](Cc1ccccc1)NC(=O)[C@H](C(C)C)N1CCCNC1=O | 4830 µL/min/mg
